# ASSAY SYSTEM: full-length B-Catenin (Uniprot ID P35222) (Homo sapiens, UniProt P35222)
# Construct: 65 nM full-length B-Catenin (Uniprot ID P35222)
# TEST DESCRIPTION: Alphascreen binding assay (beta-catenin / biotin-TCF4 10-53)
EXPERIMENTAL READOUT: EC50 (µM)
Return type: number; implicit unit µM.

Prompt line: Given `CC(=O)N[C@@H](Cc1ccccc1)C(=O)N[C@@H](CC(=O)O)C(=O)N[C@@H](C)C(=O)N[C@]1(C)CCCCCCC=CCOC(=O)N2CC[C@@](C(=O)N[C@@H](Cc3ccccn3)C(=O)N[C@@H](Cc3c[nH]c4ccccc34)C(=O)N[C@@H](CCC(N)=O)C(N)=O)(C2)NC(=O)[C@H](C(C)C)NC(=O)[C@H](Cc2ccccc2)NC(=O)[C@H](C)NC(=O)[C@H](C)NC(=O)[C@H](CC(=O)O)NC(=O)[C@H](CC(=O)O)NC1=O` , state its recorded EC50.
Response line: 9.77

Prompt line: Given CC(=O)N1CCC[C@]12CC=CCCCC1(CCCC=CCCCCCC[C@@](C)(C(=O)N[C@@H](Cc3ccccc3)C(=O)N[C@@H](Cc3c[nH]c4ccccc34)C(=O)N[C@@H](CCC(N)=O)C(N)=O)NC(=O)[C@H](C(C)C)NC(=O)[C@H](Cc3ccccc3)NC(=O)[C@H](C)NC(=O)[C@H](C)NC(=O)[C@H](CC(=O)O)NC(=O)[C@H](CC(=O)O)NC1=O)NC(=O)[C@H](C)NC(=O)[C@H](CC(=O)O)NC2=O (stereo partly drawn) , state its recorded EC50.
Response line: 0.158

Prompt line: Given CC(=O)N1CCC[C@]12CC=CCCCC1(CCCC=CCCCCCC[C@@](C)(C(=O)N[C@@H](Cc3ccc(C(F)(F)F)cc3)C(=O)N[C@@H](Cc3c[nH]c4ccccc34)C(=O)N[C@@H](CCC(N)=O)C(N)=O)NC(=O)[C@H](C(C)C)NC(=O)[C@H](Cc3ccccc3)NC(=O)[C@H](C)NC(=O)[C@H](C)NC(=O)[C@H](CC(=O)O)NC(=O)[C@H](CC(=O)O)NC1=O)NC(=O)[C@H](C)NC(=O)[C@H](CC(=O)O)NC2=O (stereo partly drawn) [I-255] , state its recorded EC50.
Response line: 1.96

---

# ASSAY SYSTEM: full-length beta-Catenin (Uniprot ID P35222) (Homo sapiens, UniProt P35222)
# Construct: 10 nM full-length beta-Catenin (Uniprot ID P35222)
# Sequence (P35222 whole entry): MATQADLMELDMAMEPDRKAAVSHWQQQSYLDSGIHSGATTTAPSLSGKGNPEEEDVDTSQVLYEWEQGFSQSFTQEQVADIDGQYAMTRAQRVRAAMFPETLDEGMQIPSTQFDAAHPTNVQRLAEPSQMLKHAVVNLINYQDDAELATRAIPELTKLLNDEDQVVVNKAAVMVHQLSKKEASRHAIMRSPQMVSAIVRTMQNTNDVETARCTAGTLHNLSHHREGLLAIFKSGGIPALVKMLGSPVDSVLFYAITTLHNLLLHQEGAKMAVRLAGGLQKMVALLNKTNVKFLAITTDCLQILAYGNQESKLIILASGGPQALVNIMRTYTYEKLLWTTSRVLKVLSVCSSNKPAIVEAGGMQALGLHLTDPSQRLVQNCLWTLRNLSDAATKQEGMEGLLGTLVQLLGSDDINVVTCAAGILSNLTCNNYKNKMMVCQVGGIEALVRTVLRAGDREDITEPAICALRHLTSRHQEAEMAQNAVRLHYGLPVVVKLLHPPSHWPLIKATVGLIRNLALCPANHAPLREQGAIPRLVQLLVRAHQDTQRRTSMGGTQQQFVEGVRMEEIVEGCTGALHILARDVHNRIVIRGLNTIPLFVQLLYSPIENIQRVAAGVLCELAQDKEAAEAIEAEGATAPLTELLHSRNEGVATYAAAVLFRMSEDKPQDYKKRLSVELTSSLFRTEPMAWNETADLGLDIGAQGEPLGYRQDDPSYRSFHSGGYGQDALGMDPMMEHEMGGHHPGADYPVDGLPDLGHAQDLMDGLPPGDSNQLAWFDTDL
# TEST DESCRIPTION: Fluorescence polarization IC50 (beta-catenin / 5FAM-TCF4 10-53 competition)
# Type: binding
# CONDITIONS: fluorescence polarization, beta-catenin; read-out: FP EC50
EXPERIMENTAL READOUT: pIC50
In simple prose, pIC50 is minus the logarithm base ten of a concentration in moles per litre.

Prompt line: Given CC(=O)N1CCC[C@]12CC=CCCCC1(CCCC=CCCCOC(=O)N3CC[C@@](C(=O)N[C@@H](Cc4ccsc4)C(=O)N[C@@H](Cc4csc5ccccc45)C(=O)N[C@@H](CO)C(N)=O)(C3)NC(=O)[C@H](CC(C)C)NC(=O)[C@H](Cc3ccccc3)NC(=O)[C@H](C)NC(=O)[C@H](C)NC(=O)[C@H](CN(CC(=O)O)CC(F)(F)F)NC(=O)[C@H](CC(=O)O)NC1=O)NC(=O)[C@H](CC(C)(C)C)NC(=O)[C@H](CC(=O)O)NC2=O (some centres unmarked) [I-960] , state its recorded pIC50.
Response line: 6.47

Prompt line: Given CC(=O)N1CCC[C@]12CC=CCCCC1(CCCC=CCCCCCC[C@@](C)(C(=O)N[C@@H](Cc3ccccc3)C(=O)N[C@@H](Cc3csc4ccccc34)C(=O)N[C@@H](CCC(N)=O)C(N)=O)NC(=O)[C@H](CC(N)=O)NC(=O)[C@H](Cc3ccccc3)NC(=O)[C@H](C)NC(=O)[C@H](C)NC(=O)[C@H](CC(=O)O)NC(=O)[C@H](CC(=O)O)NC1=O)NC(=O)[C@H](C)NC(=O)[C@H](CC(=O)O)NC2=O (some centres unmarked) [I-344] , state its recorded pIC50.
Response line: 7.38

Prompt line: Given CC[C@H](C)[C@H](NC(=O)[C@H](CC(=O)O)NC(=O)[C@H](C)NC(C)=O)C(=O)N[C@]1(C)CCN(C)C(=O)OCC=CCCCCC[C@@](C)(C(=O)N[C@@H](Cc2ccccc2)C(=O)N[C@@H](Cc2c[nH]c3ccccc23)C(=O)N[C@@H](Cc2c[nH]cn2)C(N)=O)NC(=O)[C@H](CCC(N)=O)NC(=O)[C@H](Cc2ccccc2)NC(=O)[C@H](C)NC(=O)[C@H](C)NC(=O)[C@H](CCC(=O)O)NC(=O)[C@H](CC(=O)O)NC1=O [I-66] , state its recorded pIC50.
Response line: 5.96

Prompt line: Given CC(=O)N1CCC[C@]12CC=CCCCC1(CCCC=CCCCCCC[C@@](C)(C(=O)N[C@@H](Cc3ccccc3)C(=O)N[C@@H](Cc3c[nH]c4ccccc34)C(=O)N[C@@H](C)C(N)=O)NC(=O)[C@H](C(C)C)NC(=O)[C@H](Cc3ccccc3)NC(=O)[C@H](C)NC(=O)[C@H](C)NC(=O)[C@H](CC(=O)O)NC(=O)[C@H](CC(=O)O)NC1=O)NC(=O)[C@H](C)NC(=O)[C@H](CC(=O)O)NC2=O (some centres unmarked) [I-292] , state its recorded pIC50.
Response line: 5.73

Prompt line: Given CCN(CC(=O)O)C[C@@H]1NC(=O)[C@H](CC(=O)O)NC(=O)C2(CCCC=CCCCOC(=O)N3CC[C@@](C(=O)N[C@@H](Cc4ccsc4)C(=O)N[C@@H](Cc4csc5ccccc45)C(=O)N[C@@H](CCC(N)=O)C(N)=O)(C3)NC(=O)[C@H](CO)NC(=O)[C@H](Cc3ccccc3)NC(=O)[C@H](C)NC(=O)[C@H](C)NC1=O)CCCC=CC[C@]1(CCCN1C(C)=O)C(=O)N[C@@H](CC(=O)O)C(=O)N[C@@H](CC(C)(C)C)C(=O)N2 (some centres unmarked) [I-967] , state its recorded pIC50.
Response line: 5.76
